Here, each record is paired with measured OD450 data.
biological target: T1, human MSLN-FL-his protein (human, UniProt Q13421 296-580); assay: ELISA on coated antigen, antibody 10 nM
T1 construct: Self-made in HEK293E cells; also called human MSLN full-length protein; hMSLN-FL-his; not shown: His tag
T1 sequence (Q13421 other isoform, or with tags, fused parts or gaps): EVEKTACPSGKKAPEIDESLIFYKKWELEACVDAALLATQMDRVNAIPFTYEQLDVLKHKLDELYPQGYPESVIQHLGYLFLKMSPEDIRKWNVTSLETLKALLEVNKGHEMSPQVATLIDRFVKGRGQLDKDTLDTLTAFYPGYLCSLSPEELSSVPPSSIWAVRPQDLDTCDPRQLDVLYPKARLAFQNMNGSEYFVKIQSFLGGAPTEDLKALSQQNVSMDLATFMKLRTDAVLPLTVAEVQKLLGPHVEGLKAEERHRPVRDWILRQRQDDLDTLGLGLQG
Quick reminder: number only, in OD450, skip the unit.

Reference set, count: 5
binder	OD450, OD450
S009-F3.80.22 (antibody, human IgG1, kappa, V domains shown, Human-murine chimeric antibody: murine VH/VL on human IgG1 heavy and kappa light constant regions) VH: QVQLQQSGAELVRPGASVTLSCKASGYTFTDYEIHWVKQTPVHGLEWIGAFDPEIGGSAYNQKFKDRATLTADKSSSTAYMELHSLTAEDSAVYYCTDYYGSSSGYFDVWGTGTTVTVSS VL: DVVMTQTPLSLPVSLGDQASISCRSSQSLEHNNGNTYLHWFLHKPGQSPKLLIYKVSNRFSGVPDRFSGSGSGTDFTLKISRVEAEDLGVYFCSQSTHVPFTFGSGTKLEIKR	1.99
S009-F3.16.1 (antibody, human IgG1, kappa, V domains shown, Human-murine chimeric antibody: murine VH/VL on human IgG1 heavy and kappa light constant regions) VH: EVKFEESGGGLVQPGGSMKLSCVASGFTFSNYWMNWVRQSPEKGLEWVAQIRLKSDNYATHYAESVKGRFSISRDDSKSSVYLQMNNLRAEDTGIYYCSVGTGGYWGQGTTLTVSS VL: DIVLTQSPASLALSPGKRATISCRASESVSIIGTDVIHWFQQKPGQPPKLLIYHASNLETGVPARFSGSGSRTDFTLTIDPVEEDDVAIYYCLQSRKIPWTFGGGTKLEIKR	0.11
S009-F3.74.20 (antibody, human IgG1, kappa, V domains shown, Human-murine chimeric antibody: murine VH/VL on human IgG1 heavy and kappa light constant regions) VH: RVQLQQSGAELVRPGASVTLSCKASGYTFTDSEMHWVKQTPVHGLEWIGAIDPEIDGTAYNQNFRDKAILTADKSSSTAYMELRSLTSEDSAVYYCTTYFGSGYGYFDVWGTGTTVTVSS VL: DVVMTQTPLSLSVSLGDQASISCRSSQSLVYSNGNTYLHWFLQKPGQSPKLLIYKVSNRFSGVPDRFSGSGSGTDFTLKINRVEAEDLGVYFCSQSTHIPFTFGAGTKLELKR	1.97
S009-F3.38.10 (antibody, human IgG1, kappa, V domains shown, Human-murine chimeric antibody: murine VH/VL on human IgG1 heavy and kappa light constant regions) VH: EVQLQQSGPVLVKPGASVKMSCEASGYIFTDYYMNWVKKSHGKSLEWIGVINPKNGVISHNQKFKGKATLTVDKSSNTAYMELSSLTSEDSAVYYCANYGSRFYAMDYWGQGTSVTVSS VL: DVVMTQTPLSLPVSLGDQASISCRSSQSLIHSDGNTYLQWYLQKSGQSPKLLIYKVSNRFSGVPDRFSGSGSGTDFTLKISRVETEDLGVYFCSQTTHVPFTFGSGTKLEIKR	0.06
S009-F3.45.21 (antibody, human IgG1, kappa, V domains shown, Human-murine chimeric antibody: murine VH/VL on human IgG1 heavy and kappa light constant regions) VH: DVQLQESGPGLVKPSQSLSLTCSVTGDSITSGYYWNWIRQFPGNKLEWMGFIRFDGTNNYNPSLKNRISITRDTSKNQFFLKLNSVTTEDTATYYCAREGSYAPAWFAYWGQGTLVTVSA VL: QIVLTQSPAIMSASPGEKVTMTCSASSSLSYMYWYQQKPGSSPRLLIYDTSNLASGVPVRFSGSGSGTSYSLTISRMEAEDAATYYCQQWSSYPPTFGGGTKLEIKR	1.8

Now turn to the next binder.
Problem: Entry under review: S009-F3.7.3 (antibody, human IgG1, kappa, V domains shown, Human-murine chimeric antibody: murine VH/VL on human IgG1 heavy and kappa light constant regions) VH: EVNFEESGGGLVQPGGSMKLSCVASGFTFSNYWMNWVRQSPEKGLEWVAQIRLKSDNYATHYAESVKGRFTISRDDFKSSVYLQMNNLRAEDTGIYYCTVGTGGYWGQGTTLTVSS VL: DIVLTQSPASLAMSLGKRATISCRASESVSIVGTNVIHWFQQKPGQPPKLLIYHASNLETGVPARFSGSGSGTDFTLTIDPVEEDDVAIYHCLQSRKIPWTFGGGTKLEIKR . Reported OD450?
Result: 0.08
